Tested on: LP1
Test: MTT cell viability assay, myeloma cell line
Type: cell-based, human
Conditions: Homo sapiens, LP-1, single agent, read-out: IC50
Procedure: Cell lines: Human myeloma cell lines (HMCLs) were derived from primary myeloma cells cultured in RPMI 1640 medium supplemented with 5% fetal calf serum from and 3 ng/mL recombinant IL-6 for IL-6 dependent cell lines. HMCLs are representative of phenotypic and genomic heterogeneity and the variability in patient's response to therapy. MTT assay: Cell viability is measured using MTT (3-(4,5-dimethylthiazol-2-yl)-2,5-diphenyltetrazolium bromide) colorimetric survival assay. […]
readout type: IC50 (µM)
Give bare numbers, in µM.

-- ask Identify measured IC50 corresponding to Cl.O=C(c1cc(-c2cc3c(cc2C(=O)N2Cc4ccccc4C[C@H]2CN2CCOCC2)OCO3)n2c1CCCC2)N(c1ccccc1)c1ccc(O)cc1 [Compound 1, HCl]
-- reply 9.77

* * *

Test system: SU-DHL-10
Assay: CellTiterGlo viability, DLBCL cell line
Assay type: cell-based
Conditions: single agent, 2 days, read-out: Abs IC50
readout type: pIC50
One number for each entry, as −log10 of the molar value.

-- ask Report measured pIC50; entry is COc1ccccc1-c1nccc(COc2ccccc2C[C@@H](Oc2ncnc3sc(-c4ccc(F)cc4)c(-c4ccc(OCCN5CCN(C)CC5)c(Cl)c4C)c23)C(=O)O)n1
-- reply 8.42

* * *

System: L363
Assay: MTT cell viability assay, myeloma cell line
Format: cell-based, human
Conditions: Homo sapiens, L-363, single agent, read-out: IC50
Procedure: Cell lines: Human myeloma cell lines (HMCLs) were derived from primary myeloma cells cultured in RPMI 1640 medium supplemented with 5% fetal calf serum from and 3 ng/mL recombinant IL-6 for IL-6 dependent cell lines. HMCLs are representative of phenotypic and genomic heterogeneity and the variability in patient's response to therapy. MTT assay: Cell viability is measured using MTT (3-(4,5-dimethylthiazol-2-yl)-2,5-diphenyltetrazolium bromide) colorimetric survival assay. […]
readout type: IC50 (µM)
Numbers only, in µM.

-- ask Give the measured IC50 for Cl.O=C(c1cc(-c2cc3c(cc2C(=O)N2Cc4ccccc4C[C@H]2CN2CCOCC2)OCO3)n2c1CCCC2)N(c1ccccc1)c1ccc(O)cc1 [Compound 1, HCl]
-- reply 7.58

* * *

System: SH-SY5Y
Assay: CellTiterGlo viability, neuroblastoma cell line
Type: cell-based
Details: single agent, 2 days
pIC50: −log10 of the molar value.
readout type: pIC50

-- ask Look up SH-SY5Y data: pIC50 of COc1ccccc1-c1nccc(COc2ccccc2C[C@@H](Oc2ncnc3sc(-c4ccc(F)cc4)c(-c4ccc(OCCN5CCN(C)CC5)c(Cl)c4C)c23)C(=O)O)n1 , then report it.
-- reply < 5.52

* * *

System: OCI-LY-19
Assay: CellTiterGlo viability, DLBCL cell line
Assay type: cell-based
Settings: single agent, 2 days, read-out: Abs IC50
readout type: IC50 (nM)
Answers are plain numbers, in nM.

-- ask With OCI-LY-19 as the test system, provide measured IC50 for this compound: COc1ccccc1-c1nccc(COc2ccccc2C[C@@H](Oc2ncnc3sc(-c4ccc(F)cc4)c(-c4ccc(OCCN5CCN(C)CC5)c(Cl)c4C)c23)C(=O)O)n1
-- reply 60.4

* * *

Test system: RPMI8226
Assay: MTT cell viability assay, myeloma cell line
Assay type: cell-based, human
Settings: Homo sapiens, RPMI-8226, single agent, read-out: IC50
readout type: IC50 (µM)
Numbers only, in µM.

-- ask Please indicate recorded IC50 of Cl.O=C(c1cc(-c2cc3c(cc2C(=O)N2Cc4ccccc4C[C@H]2CN2CCOCC2)OCO3)n2c1CCCC2)N(c1ccccc1)c1ccc(O)cc1 [Compound 1, HCl] measured with RPMI8226.
-- reply 3.2

* * *

Test system: Toledo
Assay: CellTiterGlo viability, DLBCL cell line
Format: cell-based
Conditions: Toledo; single agent; 2 days; read-out: Abs IC50
pIC50: −log10 of the molar value.
readout type: pIC50

-- ask // fetch pIC50 given entry COc1ccccc1-c1nccc(COc2ccccc2C[C@@H](Oc2ncnc3sc(-c4ccc(F)cc4)c(-c4ccc(OCCN5CCN(C)CC5)c(Cl)c4C)c23)C(=O)O)n1 [Compound 3]
-- reply ≤ 6.00

* * *

System: SK-N-DZ
Assay: CellTiterGlo viability, neuroblastoma cell line
Assay type: cell-based
Details: single agent, 3 days
readout type: IC50

-- ask Using known records, supply IC50 for COc1ccccc1-c1nccc(COc2ccccc2C[C@@H](Oc2ncnc3sc(-c4ccc(F)cc4)c(-c4ccc(OCCN5CCN(C)CC5)c(Cl)c4C)c23)C(=O)O)n1
-- reply > 2000 nM

* * *

Tested on: JIM3
Assay: MTT cell viability assay, myeloma cell line
Format: cell-based, human
Details: Homo sapiens, single agent, read-out: IC50
readout type: IC50

-- ask Specify IC50 for Cl.O=C(c1cc(-c2cc3c(cc2C(=O)N2Cc4ccccc4C[C@H]2CN2CCOCC2)OCO3)n2c1CCCC2)N(c1ccccc1)c1ccc(O)cc1 [Compound 1, HCl] and stop.
-- reply > 30 µM

* * *

Tested on: SU-DHL-8
Experiment: CellTiterGlo viability, DLBCL cell line
Format: cell-based
Settings: single agent, 2 days, read-out: Abs IC50
readout type: pIC50
One number for each entry, as −log10 of the molar value.

-- ask Provide one value: measured pIC50 of COc1ccccc1-c1nccc(COc2ccccc2C[C@@H](Oc2ncnc3sc(-c4ccc(F)cc4)c(-c4ccc(OCCN5CCN(C)CC5)c(Cl)c4C)c23)C(=O)O)n1 [Compound 3]
-- reply 6.52

* * *

Test system: CML-T1
Experiment: CellTiterGlo viability, T-ALL cell line
Type: cell-based
Details: single agent, 72 h
Exercise: for every item that follows, state its recorded pIC50.
One number for each entry, as −log10 of the molar value.

Cl.O=C(c1cc(-c2cc3c(cc2C(=O)N2Cc4ccccc4C[C@H]2CN2CCOCC2)OCO3)n2c1CCCC2)N(c1ccccc1)c1ccc(O)cc1 [Compound 1, HCl]	4.82

Let's switch to this molecule now.
-- ask Using the record for COc1ccccc1-c1nccc(COc2ccccc2C[C@@H](Oc2ncnc3sc(-c4ccc(F)cc4)c(-c4ccc(OCCN5CCN(C)CC5)c(Cl)c4C)c23)C(=O)O)n1 [Compound 3] , state its measured pIC50.
-- reply 5.22

* * *

System: XG6
Test: MTT cell viability assay, myeloma cell line
Assay type: cell-based, human
Settings: + 1 μM Compound 1, HCl, read-out: IC50 of Compound 2 in the presence of 1 μM of Compound 1, HCl
readout type: pIC50
Numbers only, as −log10 of the molar value.

-- ask Give recorded pIC50. Cc1c(-c2c(-c3ccc(F)o3)sc3ncnc(O[C@H](Cc4ccccc4OCc4ccnn4CC(F)(F)F)C(=O)O)c23)ccc(OCCN2CCN(C)CC2)c1Cl
-- reply 9.30

* * *

System: SK-N-AS
Assay: CellTiterGlo viability, neuroblastoma cell line
Assay type: cell-based
Settings: single agent, 3 days
readout type: pIC50
Numbers only, as −log10 of the molar value.

-- ask Read the entry COc1ccccc1-c1nccc(COc2ccccc2C[C@@H](Oc2ncnc3sc(-c4ccc(F)cc4)c(-c4ccc(OCCN5CCN(C)CC5)c(Cl)c4C)c23)C(=O)O)n1 and write its reported pIC50.
-- reply 6.59

* * *

Tested on: NAN3
Experiment: MTT cell viability assay, myeloma cell line
Assay type: cell-based, human
Settings: single agent
readout type: pIC50
Numbers only, as −log10 of the molar value.

-- ask Find pIC50 for Cc1c(-c2c(-c3ccc(F)o3)sc3ncnc(O[C@H](Cc4ccccc4OCc4ccnn4CC(F)(F)F)C(=O)O)c23)ccc(OCCN2CCN(C)CC2)c1Cl on NAN3 and write it down.
-- reply 8.82

* * *

Test system: SU-DHL-6
Test: CellTiterGlo viability, DLBCL cell line
Type: cell-based
Conditions: single agent, 2 days, read-out: Abs IC50
readout type: pIC50
Numbers only, as −log10 of the molar value.

-- ask Assign pIC50 to the following record: COc1ccccc1-c1nccc(COc2ccccc2C[C@@H](Oc2ncnc3sc(-c4ccc(F)cc4)c(-c4ccc(OCCN5CCN(C)CC5)c(Cl)c4C)c23)C(=O)O)n1
-- reply 8.67
